Test system: α7 integrin (LacZ reporter in α7+/LacZ myotubes)
Experiment: Myotube α7 integrin FDG assay (Burkin assay in myotubes, 96-well)
Format: cell-based, mouse
Conditions: myotubes, 5 uM
So basically, if Burkin Assay in Myotubes, α7 integrin LacZ reporter signal relative to DMSO comes in under 1 it's satisfied, and if it's 1 or more it's not satisfied.

compound: CCOc1ccc(Br)cc1S(=O)(=O)Nc1ccc(C(=O)Nc2ccccc2OC)cc1
answer-label: not satisfied
--
compound: COc1ccc(CN2CCNC(=O)C2CC(=O)NCCc2c[nH]c3ccccc23)c(OC)c1 (centres unmarked)
answer-label: not satisfied
--
compound: CCOc1ccc(NC(=O)CN2C(=O)S/C(=C/c3cccn3C)C2=O)cc1
answer-label: satisfied
--
compound: CC(NC(=O)c1ccc(C(C)(C)C)cc1)C(c1cccs1)N1CCOCC1 (centres unmarked)
answer-label: not satisfied
--
compound: OC(c1nc2ccc(F)cc2[nH]1)C(O)c1nc2ccc(F)cc2[nH]1 (centres unmarked)
answer-label: not satisfied
--
compound: Nc1cccc(/C=C/C(=O)O)c1
answer-label: satisfied
--
compound: C#CC1(O)CCC2C3CCC4=C/C(=N/OCC(=O)NCC(=O)NC(C(=O)O)C(C)C)CC[C@]4(C)C3CC[C@@]21C (some centres unmarked)
answer-label: not satisfied
--
compound: O=C(O)C(Cc1ccc(O)cc1)N1C(=O)c2ccccc2C1=O (centres unmarked)
answer-label: not satisfied
--
compound: CCCNC(=S)N1CCC(NC(=O)c2ccc(OC)cc2)CC1
answer-label: not satisfied
--
compound: COC(=O)c1ccccc1NC(=O)c1cc[n+]([O-])cc1
answer-label: not satisfied
--
compound: O=C(c1cccs1)N(Cc1ccco1)c1nc(-c2ccc(F)cc2)cs1
answer-label: not satisfied
--
compound: Cc1ccc(C(=O)C(C)OC(=O)CNC(=O)c2ccc(Br)o2)cc1 (centres unmarked)
answer-label: not satisfied
--
compound: COc1ccc(S(=O)(=O)N2CCCCCC2)cc1C(=O)N1CCN(c2ccccc2O)CC1
answer-label: not satisfied
--
compound: CC1CCCCC12NC(=O)N(CC(=O)OCc1cccc(F)c1)C2=O (centres unmarked)
answer-label: satisfied
--
compound: O=C(O)c1cc(N=Cc2c(O)c3ccccc3oc2=O)ccc1O
answer-label: not satisfied

Taken from patent US9980943B2.
